Task for the reader: assign each of the following substances its reported % UTC (Yap1 mRNA).
Tested on: Yap1 mRNA
Test: Dose-dependent inhibition of human Yap1 in SNU-449 cells (Example 9, RTS36584)
Format: cell-based
Settings: 2000.00 nM, free uptake, approximately 48 hours
Strand notation (5' to 3'): a small letter for the sugar, then the base; units joined by * are phosphorothioate-linked, units joined directly phosphodiester-linked; [ ] holds rarer units or linkages, { } end groups; capitals alone tell only the bases. e = 2'-O-(2-methoxyethyl) (MOE); k = constrained ethyl (cEt); [5mC] = 5-methylcytosine; d = 2'-deoxy (DNA)
Answer by giving the amount and then stating its unit.

Exam item: Please give the measured % UTC (Yap1 mRNA) for this substance: 1198492 (kG*k[5mC]*dT*dT*dT*dG*dG*dA*dA*dG*dA*eT*k[5mC]*eT*kG*eA; antisense) [compound 1198492]
Marked response: 10 % UTC

Exam item: Please give the measured % UTC (Yap1 mRNA) for this substance: 1198552 (kA*kG*kA*dG*dT*dA*dT*dG*dT*dG*dG*d[5mC]*kA*kA*kT*eA; antisense) [compound 1198552]
Marked response: 9 % UTC

Exam item: Please give the measured % UTC (Yap1 mRNA) for this substance: 1198697 (kA*kG*dT*dG*dT*dA*dT*dG*dT*d[5mC]*dA*dG*kA*eA*kG*eA) [compound 1198697]
Marked response: 1 % UTC

Exam item: Please give the measured % UTC (Yap1 mRNA) for this substance: 1198526 (kA*kA*dG*dT*dG*dT*dA*dT*dG*dT*d[5mC]*eA*kG*eA*kA*eG; antisense) [compound 1198526]
Marked response: 2 % UTC

Exam item: Please give the measured % UTC (Yap1 mRNA) for this substance: 1198550 (kA*kT*kA*dT*dG*dG*dA*dA*dA*dT*dT*dG*kT*k[5mC]*kT*e[5mC]) [compound 1198550]
Marked response: 13 % UTC

Exam item: Please give the measured % UTC (Yap1 mRNA) for this substance: 1198555 (kA*kT*kT*dA*dG*dA*dG*dT*dA*dT*dG*dT*kG*kG*k[5mC]*eA; antisense) [compound 1198555]
Marked response: 9 % UTC

Exam item: Please give the measured % UTC (Yap1 mRNA) for this substance: 1198786 (kT*eG*kT*dA*dT*dG*dT*d[5mC]*dA*dG*dA*dA*eG*eA*kG*kT) [compound 1198786]
Marked response: 2 % UTC

----------
Task for the reader: assign each of the following substances its reported MPV.
Experiment: Cynomolgus monkey tolerability, hematology (Example 34)
Assay type: in vivo, cynomolgus monkeys
Conditions: cynomolgus monkeys, 35 mg/kg subcutaneously, day 44
Number in fL, nothing else.

Exam item: Please give the measured MPV for this substance: 1076453 (GTAATATTGCAATCTG; 3-10-3 cEt gapmer, further chemistry not given here) [compound 1076453]
Marked response: 8.4

Exam item: Please give the measured MPV for this substance: 1198831 (CACTTTTACATTAGGA; chemically modified gapmer, further chemistry not given here) [compound 1198831]
Marked response: 7.3

Exam item: Please give the measured MPV for this substance: 1198605 (GTAATATTGCAATCTG; modified gapmer, further chemistry not given here) [compound 1198605]
Marked response: 8.1

Exam item: Please give the measured MPV for this substance: 1197270 (TTAAAGTGTATGTCAG; cEt gapmer with 2'-OMe nucleoside, phosphorothioate, further chemistry not given here) [compound 1197270]
Marked response: 7.1

Exam item: Please give the measured MPV for this substance: 958499 (ATTAGAGTATGTGGCA; 3-10-3 cEt gapmer, further chemistry not given here) [compound 958499]
Marked response: 7.6

Exam item: Please give the measured MPV for this substance: 1198439 (AGTGTATGTCAGAAGA; sugar, 5-methylcytosine, phosphorothioate modifications, further chemistry not given here) [compound 1198439]
Marked response: 7.6

Exam item: Please give the measured MPV for this substance: 1198623 (CTAAGTAAGGTTTCCC; modified gapmer, further chemistry not given here) [compound 1198623]
Marked response: 7.8

Exam item: Please give the measured MPV for this substance: 1198440 (AAGTGTATGTCAGAAG; cEt, 2'-MOE, 5-methylcytosine, phosphorothioate modifications, further chemistry not given here) [compound 1198440]
Marked response: 7.5

Exam item: Please give the measured MPV for this substance: 1198728 (TATTAGAGTATGTGGC; modified gapmer, further chemistry not given here) [compound 1198728]
Marked response: 8.0

Exam item: Please give the measured MPV for this substance: 1198872 (TGTATGTCAGAAGAGT; chemically modified gapmer, further chemistry not given here) [compound 1198872]
Marked response: 7.1

----------
Test system: Yap1 mRNA
Assay: Dose-dependent inhibition of human Yap1 in A-431 cells (Example 8, 10,000 cells per well, RTS4814)
Format: cell-based
Conditions: 31.3 nM; A-431 cells, 10,000 cells per well, free uptake, approximately 48 hours, RTS4814
Protocol: Modified oligonucleotides described in the studies above were tested at various doses in A-431 cells. […] After approximately 48 hours, Yap1 mRNA levels were measured as previously described using the Human Yap1 primer-probe set RTS4814. Yap1 mRNA levels were normalized to total RNA content, as measured by RIBOGREEN®. […] IC50s were calculated using a linear regression on a log/linear plot of the data in excel.
Strand notation (5' to 3'): a small letter for the sugar, then the base; units joined by * are phosphorothioate-linked, units joined directly phosphodiester-linked; [ ] holds rarer units or linkages, { } end groups; capitals alone tell only the bases. k = constrained ethyl (cEt); [5mC] = 5-methylcytosine; d = 2'-deoxy (DNA)
Task for the reader: assign each of the following substances its reported Yap1 mRNA, % UTC.
Number in % UTC, nothing else.

Exam item: Please give the measured Yap1 mRNA, % UTC for this substance: 1074414 (kA*kA*k[5mC]*dT*dG*dT*dG*dA*dA*dA*dG*dA*dG*kG*kT*k[5mC]; antisense) [compound 1074414]
Marked response: 64

Exam item: Please give the measured Yap1 mRNA, % UTC for this substance: 1075686 (kG*kT*kA*dA*dT*dT*dA*d[5mC]*dA*dG*dT*dG*dT*k[5mC]*kT*k[5mC]; antisense) [compound 1075686]
Marked response: 72

Exam item: Please give the measured Yap1 mRNA, % UTC for this substance: 1075781 (k[5mC]*kA*kT*dA*dT*dA*dT*dT*dG*dT*dG*dA*d[5mC]*kT*kT*k[5mC]; antisense) [compound 1075781]
Marked response: 52

Exam item: Please give the measured Yap1 mRNA, % UTC for this substance: 1075084 (antisense kT*kG*kA*d[5mC]*dA*dA*d[5mC]*dA*dA*d[5mC]*dA*d[5mC]*dT*k[5mC]*k[5mC]*kT) [compound 1075084]
Marked response: 103

Exam item: Please give the measured Yap1 mRNA, % UTC for this substance: 1076449 (k[5mC]*k[5mC]*kT*dT*dA*dT*dA*dA*dT*dG*d[5mC]*dA*dA*kT*k[5mC]*k[5mC]; antisense) [compound 1076449]
Marked response: 44

Exam item: Please give the measured Yap1 mRNA, % UTC for this substance: 1075712 (kG*kA*k[5mC]*dG*d[5mC]*dG*dA*dA*dA*dT*dA*d[5mC]*dT*kT*kA*k[5mC]; antisense) [compound 1075712]
Marked response: 69

Exam item: Please give the measured Yap1 mRNA, % UTC for this substance: 1075401 (antisense k[5mC]*kG*kA*dT*dT*dA*dA*dA*dA*d[5mC]*dA*d[5mC]*dT*kG*kG*kT) [compound 1075401]
Marked response: 62

Exam item: Please give the measured Yap1 mRNA, % UTC for this substance: 1074419 (kA*kT*kT*d[5mC]*dT*dT*dT*dA*dG*dA*dG*d[5mC]*d[5mC]*kA*kA*k[5mC]; antisense) [compound 1074419]
Marked response: 48

Exam item: Please give the measured Yap1 mRNA, % UTC for this substance: 1074417 (kT*k[5mC]*kT*dT*dT*dA*dG*dA*dG*d[5mC]*d[5mC]*dA*dA*k[5mC]*kT*kG; antisense) [compound 1074417]
Marked response: 68

Exam item: Please give the measured Yap1 mRNA, % UTC for this substance: 1076426 (kA*k[5mC]*kG*dG*dG*dA*dA*dA*dA*dT*dT*d[5mC]*dT*kG*kG*kA; antisense) [compound 1076426]
Marked response: 68

Exam item: Please give the measured Yap1 mRNA, % UTC for this substance: 1074444 (kA*k[5mC]*kA*dT*dT*dT*dT*dT*dG*dG*d[5mC]*dT*dT*kG*kT*k[5mC]; antisense) [compound 1074444]
Marked response: 49

Exam item: Please give the measured Yap1 mRNA, % UTC for this substance: 1076481 (k[5mC]*kT*kA*dA*dG*dT*dA*dA*dG*dG*dT*dT*dT*k[5mC]*k[5mC]*k[5mC]) [compound 1076481]
Marked response: 21

The reported numbers originate from patent US11214803B2.
